- Tested target: S-adenosylmethionine decarboxylase proenzyme (Rattus norvegicus, UniProt P17708)
- Sequence (P17708 1-67 limits assumed): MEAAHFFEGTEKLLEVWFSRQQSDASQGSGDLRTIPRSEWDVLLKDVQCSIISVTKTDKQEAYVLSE
- Sequence (P17708 68-333 limits assumed): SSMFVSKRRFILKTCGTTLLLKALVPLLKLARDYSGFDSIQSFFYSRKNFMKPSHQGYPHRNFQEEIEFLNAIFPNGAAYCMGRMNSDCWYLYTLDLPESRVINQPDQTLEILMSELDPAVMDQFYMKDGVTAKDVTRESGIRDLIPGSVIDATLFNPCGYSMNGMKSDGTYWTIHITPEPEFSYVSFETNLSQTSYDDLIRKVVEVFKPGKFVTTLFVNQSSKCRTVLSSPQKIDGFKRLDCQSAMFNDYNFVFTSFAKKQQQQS
- Test protocol: In vitro inhibitory activity against S-adenosyl-L-methionine decarboxylase using liver from rat in absence of putrescine
pKi: −log10 of the molar value.
Outcome label depends on pKi relative to 3: at/above gives label 1, below gives label 0.

Recorded results for 6 compounds are shown here.
{"Compound": "C[S+](CCCN)C[C@H]1OC(n2cnc3c(N)ncnc32)[C@H](O)[C@@H]1O (stereo partly drawn)", "Qualitative label": "label 1"}
{"Compound": "NCCNC[C@H]1OC(n2cnc3c(N)ncnc32)[C@H](O)[C@@H]1O (stereo partly drawn)", "Qualitative label": "label 1"}
{"Compound": "CN(CCC#N)C[C@H]1OC(n2cnc3c(N)ncnc32)[C@H](O)[C@@H]1O (stereo partly drawn)", "Qualitative label": "label 0"}
{"Compound": "NC[C@H]1O[C@@H](n2cnc3c(N)ncnc32)[C@H](O)[C@@H]1O", "Qualitative label": "label 0"}
{"Compound": "C[S+](C)C[C@H]1O[C@@H](n2cnc3c(N)ncnc32)[C@H](O)[C@@H]1O", "Qualitative label": "label 1"}
{"Compound": "C[S+](CC[C@H](N)C(=O)[O-])C[C@H]1O[C@@H](n2cnc3c(N)ncnc32)[C@H](O)[C@@H]1O (stereo partly drawn)", "Qualitative label": "label 1"}

Now, please, on to the next compound.
Task: Textbook exercise: given the entry CN(CCCN)C[C@H]1OC(n2cnc3c(N)ncnc32)[C@H](O)[C@@H]1O (stereo partly drawn) , state whether its pKi is greater than or equal to 3.
Result: label 1

====

- Tested target: S-adenosylmethionine decarboxylase proenzyme (Rattus norvegicus, UniProt P17708)
- Test protocol: In vitro inhibitory activity against S-adenosyl-L-methionine decarboxylase using liver from rat in presence of 1 mM putrescine
Answer each item with its documented Ki.
Numbers only, in µM.

Previously resolved entries follow.
{"Molecule": "CN(CCC#N)C[C@H]1OC(n2cnc3c(N)ncnc32)[C@H](O)[C@@H]1O (stereo not given in full)", "Ki / µM": 300}
{"Molecule": "NC[C@H]1O[C@@H](n2cnc3c(N)ncnc32)[C@H](O)[C@@H]1O", "Ki / µM": 200}
{"Molecule": "C[S+](CCCN)C[C@H]1OC(n2cnc3c(N)ncnc32)[C@H](O)[C@@H]1O (stereo not given in full)", "Ki / µM": 3}
{"Molecule": "C[S+](CC[C@H](N)C(=O)[O-])C[C@H]1O[C@@H](n2cnc3c(N)ncnc32)[C@H](O)[C@@H]1O (stereo not given in full) [ADEMETIONINE]", "Ki / µM": 60}
{"Molecule": "NCCCNC[C@H]1OC(n2cnc3c(N)ncnc32)[C@H](O)[C@@H]1O (stereo not given in full)", "Ki / µM": 50}

Please give Ki for each item listed below.
1. CN(CCCN)C[C@H]1OC(n2cnc3c(N)ncnc32)[C@H](O)[C@@H]1O (stereo not given in full)
2. CNCCCNC[C@H]1OC(n2cnc3c(N)ncnc32)[C@H](O)[C@@H]1O (stereo not given in full)
3. C[S+](C)C[C@H]1O[C@@H](n2cnc3c(N)ncnc32)[C@H](O)[C@@H]1O

Result:
[60, 600, 2]

Below is a list of molecules. For each, state its recorded Ki.
1. NCCNC[C@H]1OC(n2cnc3c(N)ncnc32)[C@H](O)[C@@H]1O (stereo not given in full)
2. N=C(N)NC[C@H]1OC(n2cnc3c(N)ncnc32)[C@H](O)[C@@H]1O (stereo not given in full)

Result:
1: 70; 2: 80

Origin of values: ChEMBL document CHEMBL1122056
